assay: Compound was tested for half life time period in hamster jejunum; type: ADME, organism-based; settings: cricetinae
Observed Property: half-life (min)
Entry rule: numbers only, all in min.

Specify measured half-life for COc1cc(C(C)C)c2c(c1)S(=O)(=O)N(COC(=O)c1c(Cl)ccc(OCCN3CCOCC3)c1Cl)C2=O .
1.3

---

assay: Compound was tested for the half life time period in monkey liver S9; type: ADME, subcellular, S9 fraction; conditions: simiiformes
Observed Property: half-life (min)
Your answer should be a plain number; it is taken to be in min.

Look up and report measured half-life for this entry: COc1cc(C(C)C)c2c(c1)S(=O)(=O)N(COC(=O)c1c(Cl)ccc(OCCN3CCOCC3)c1Cl)C2=O
2.9

---

test: Human tissue stability for the compound was determined by its half life time period in human liver; assay type: ADME, organism-based
half-life listing for selected compounds.
Include the unit right after the number.

[
  {
    "Smiles Code": "COc1cc(C(C)C)c2c(c1)S(=O)(=O)N(COC(=O)c1c(Cl)ccc(OCCN3CCCC3)c1Cl)C2=O",
    "half-life": "110 min"
  },
  {
    "Smiles Code": "CC(C)c1cc(O)cc2c1C(=O)N(COC(=O)c1c(Cl)ccc(S(=O)(=O)N3CCN(C)CC3)c1Cl)S2(=O)=O",
    "half-life": "40.2 min"
  },
  {
    "Smiles Code": "CC(C)c1cccc2c1C(=O)N(COC(=O)c1c(Cl)ccc(OCCN3CCOCC3)c1Cl)S2(=O)=O",
    "half-life": "4.9 min"
  }
]

Supply reported half-life belonging to this compound: COc1cc(C(C)C)c2c(c1)S(=O)(=O)N(COC(=O)c1c(Cl)ccc(S(=O)(=O)N3CCN(C)CC3)c1Cl)C2=O
28.9 min

// Input: COc1cc(C(C)C)c2c(c1)S(=O)(=O)N(COC(=O)c1c(Cl)ccc(OCCN3CCOCC3)c1Cl)C2=O . Output its half-life only.
37.3 min

For the compound COc1cc(C(C)C)c2c(c1)S(=O)(=O)N(COC(=O)c1c(Cl)ccc(S(=O)(=O)N(C)CCN(C)C)c1Cl)C2=O , report half-life.
23.9 min

---

test: Compound was tested for the half life time period in rat liver S9; format: ADME, S9 fraction
Observed Property: half-life (min)
Express it in min; write the number only.

In one line, give reported half-life of the entry COc1cc(C(C)C)c2c(c1)S(=O)(=O)N(COC(=O)c1c(Cl)ccc(OCCN3CCOCC3)c1Cl)C2=O .
12.4

---

Recorded half-life values for a group of molecules are listed next.
experiment: Human tissue stability for the compound was determined by its half life time period in human jejunum; type: ADME, organism-based
Write the answer as a number in min, unit excluded.

[
  {
    "Smiles Code": "CC(C)c1cc(O)cc2c1C(=O)N(COC(=O)c1c(Cl)ccc(S(=O)(=O)N3CCN(C)CC3)c1Cl)S2(=O)=O",
    "half-life [min]": 113
  },
  {
    "Smiles Code": "COc1cc(C(C)C)c2c(c1)S(=O)(=O)N(COC(=O)c1c(Cl)ccc(OCCN3CCOCC3)c1Cl)C2=O",
    "half-life [min]": 170
  },
  {
    "Smiles Code": "COc1cc(C(C)C)c2c(c1)S(=O)(=O)N(COC(=O)c1c(Cl)ccc(OCCN3CCCC3)c1Cl)C2=O",
    "half-life [min]": 218
  },
  {
    "Smiles Code": "COc1cc(C(C)C)c2c(c1)S(=O)(=O)N(COC(=O)c1c(Cl)ccc(S(=O)(=O)N3CCN(C)CC3)c1Cl)C2=O",
    "half-life [min]": 99
  },
  {
    "Smiles Code": "CC(C)c1cccc2c1C(=O)N(COC(=O)c1c(Cl)ccc(OCCN3CCOCC3)c1Cl)S2(=O)=O",
    "half-life [min]": 13
  }
]

Please turn your attention to the following entry.
Quick one: give measured half-life for COc1cc(C(C)C)c2c(c1)S(=O)(=O)N(COC(=O)c1c(Cl)ccc(S(=O)(=O)N(C)CCN(C)C)c1Cl)C2=O
80

---

experiment: Compound was tested for plasma concentration in Beagle dogs at oral dose of 20 mg/kg and an intravenous dose of 5 mg/kg was administered; type: ADME, organism-based, Canis lupus familiaris; details: dog
Observed Property: log10(half-life) (log10 of the value in min)
Scale type: logarithmic (base 10). Underlying half-life unit: min.

Sample records with log10(half-life):
[
  {
    "Smiles Code": "COc1cc(C(C)C)c2c(c1)S(=O)(=O)N(COC(=O)c1c(Cl)ccc(OCCN3CCCC3)c1Cl)C2=O",
    "log10(half-life)": 2.64
  },
  {
    "Smiles Code": "CC(C)c1cc(O)cc2c1C(=O)N(COC(=O)c1c(Cl)ccc(S(=O)(=O)N3CCN(C)CC3)c1Cl)S2(=O)=O",
    "log10(half-life)": 1.36
  },
  {
    "Smiles Code": "COc1cc(C(C)C)c2c(c1)S(=O)(=O)N(COC(=O)c1c(Cl)ccc(OCCN3CCOCC3)c1Cl)C2=O",
    "log10(half-life)": 2.14
  },
  {
    "Smiles Code": "COc1cc(C(C)C)c2c(c1)S(=O)(=O)N(COC(=O)c1c(Cl)ccc(S(=O)(=O)N(C)CCN(C)C)c1Cl)C2=O",
    "log10(half-life)": 1.87
  }
]

Next compound, log10(half-life) to be filled in.
Tell me its log10(half-life) given COc1cc(C(C)C)c2c(c1)S(=O)(=O)N(COC(=O)c1c(Cl)ccc(S(=O)(=O)N3CCN(C)CC3)c1Cl)C2=O as the entry.
1.89

---

experiment: Compound was tested for the half life time period in dog blood; assay type: ADME, organism-based, Canis lupus familiaris
Observed Property: half-life
Answers without a unit are incomplete; give the number and then its unit.

// fetch half-life given entry COc1cc(C(C)C)c2c(c1)S(=O)(=O)N(COC(=O)c1c(Cl)ccc(OCCN3CCOCC3)c1Cl)C2=O
1.5 h

---

assay: Compound was tested for the half life time period in rat blood; format: ADME, organism-based
Observed Property: half-life (min)
Report the value in min with no unit label.

// fetch half-life given entry COc1cc(C(C)C)c2c(c1)S(=O)(=O)N(COC(=O)c1c(Cl)ccc(OCCN3CCOCC3)c1Cl)C2=O
6

---

test: Compound was tested for the half life time period in dog liver S9; type: ADME, Canis lupus familiaris, S9 fraction
Observed Property: half-life (min)
Reply numerically in min, unit not repeated.

Read off the recorded half-life for COc1cc(C(C)C)c2c(c1)S(=O)(=O)N(COC(=O)c1c(Cl)ccc(OCCN3CCOCC3)c1Cl)C2=O
30.2

---

test: Oral bioavailability in Beagle dogs at oral dose of 20 mg/kg and an intravenous dose of 5 mg/kg was administered; assay type: ADME, organism-based, Canis lupus familiaris; conditions: dog, in vivo, read-out: BA
Observed Property: bioavailability
Answer as a quantity: numeral, then unit.

[
  {
    "Smiles Code": "COc1cc(C(C)C)c2c(c1)S(=O)(=O)N(COC(=O)c1c(Cl)ccc(S(=O)(=O)N3CCN(C)CC3)c1Cl)C2=O",
    "bioavailability": "21%"
  },
  {
    "Smiles Code": "COc1cc(C(C)C)c2c(c1)S(=O)(=O)N(COC(=O)c1c(Cl)ccc(S(=O)(=O)N(C)CCN(C)C)c1Cl)C2=O",
    "bioavailability": "14%"
  },
  {
    "Smiles Code": "CC(C)c1cc(O)cc2c1C(=O)N(COC(=O)c1c(Cl)ccc(S(=O)(=O)N3CCN(C)CC3)c1Cl)S2(=O)=O",
    "bioavailability": "8%"
  },
  {
    "Smiles Code": "COc1cc(C(C)C)c2c(c1)S(=O)(=O)N(COC(=O)c1c(Cl)ccc(OCCN3CCOCC3)c1Cl)C2=O",
    "bioavailability": "21%"
  }
]

Now look at this one.
For COc1cc(C(C)C)c2c(c1)S(=O)(=O)N(COC(=O)c1c(Cl)ccc(OCCN3CCCC3)c1Cl)C2=O , write its bioavailability.
46%

---

experiment: Compound was tested for the half life time period in rat jejunum; type: ADME, organism-based
Observed Property: half-life

Determine from records and report half-life for COc1cc(C(C)C)c2c(c1)S(=O)(=O)N(COC(=O)c1c(Cl)ccc(OCCN3CCOCC3)c1Cl)C2=O
60.8 min

---

test: Compound was tested for in vivo bioavailability in rat; type: ADME, organism-based; settings: read-out: Bioavailabiility
Observed Property: bioavailability

Supply measured bioavailability of COc1cc(C(C)C)c2c(c1)S(=O)(=O)N(COC(=O)c1c(Cl)ccc(OCCN3CCOCC3)c1Cl)C2=O in your reply.
1%

---

experiment: Compound was tested for in vivo bioavailability in dog; format: ADME, organism-based, Canis lupus familiaris; settings: read-out: Bioavailabiility
Observed Property: bioavailability (%)
Provide only the numeric value, understood in %.

Consider the molecule COc1cc(C(C)C)c2c(c1)S(=O)(=O)N(COC(=O)c1c(Cl)ccc(OCCN3CCOCC3)c1Cl)C2=O . State its measured bioavailability.
21
